TGT: KRas G12D (Homo sapiens (Human), UniProt P01116, G12D)
Sequence (P01116 other isoform, or with tags, fused parts or gaps G12D): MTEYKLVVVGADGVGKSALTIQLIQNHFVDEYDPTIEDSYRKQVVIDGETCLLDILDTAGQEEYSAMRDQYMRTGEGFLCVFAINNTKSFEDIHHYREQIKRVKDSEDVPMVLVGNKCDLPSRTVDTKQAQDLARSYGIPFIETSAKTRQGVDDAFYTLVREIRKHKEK
EXPERIMENT: KRas G12D Binding Assay (TR-FRET displacement of Cy5 labelled tracer)
EXPERIMENTAL_CONDITIONS: GDP-loaded KRAS G12D (amino acids 1:169), 60 minute incubation at 22° C.
IC50 overview

*Q* I have this compound here, N#Cc1ccccc1-c1ncc2c(N3CC4CCC(C3)N4)nc(OC[C@@]34CCCN3C[C@H](F)C4)nc2c1F (stereo in doubt) , and I need its recorded IC50.
*A* 2.23 µM

*Q* What about Oc1cc(-c2ncc3c(N4C[C@H]5CC[C@@H](C4)N5)nc(OCc4cccnc4)nc3c2F)c2ccccc2c1 ?
*A* 0.624 µM

*Q* What about Oc1cc(-c2ncc3c(N4C[C@H]5CC[C@@H](C4)N5)nc(OCC45CCCN4CCC5)nc3c2F)c2c(Cl)cccc2c1 ?
*A* 0.0004 µM

*Q* What about Fc1c(-c2cccc3scnc23)ncc2c(N3C[C@H]4CC[C@@H](C3)N4)nc(OCC34CCCN3CCC4)nc12 ?
*A* 0.295 µM
